target: T1, 2α PASB (HIF-2α PASB domain, 240-350) (UniProt Q99814 240-350, labelled with NT-647-NHS dye in MST; 15N (and 13C 15N) labelled in NMR); assay: fluorescence polarisation, 2α PASB titrated into 2 µM fluor-CRVIIF
T1 construct: range 240-350; also called PAS B domain of HIF-2α; not shown: His6 tag of vector pET28, then Met
T1 sequence (Q99814 240-350): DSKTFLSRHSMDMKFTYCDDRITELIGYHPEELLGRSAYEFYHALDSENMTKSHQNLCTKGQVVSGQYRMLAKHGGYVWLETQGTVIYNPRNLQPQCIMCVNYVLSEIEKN
MEASUREMENT KIND: Kd

| BINDER | MEASUREMENT KIND | RESULT |
| --- | --- | --- |
| cyclo(C(FITC‑maleimide)RVIIF) (not fully specified; printed as fluor-CRVIIF, also called FITC-CRVIIF) [fluorescently labelled cyclo-CRVIIF (fluor-CRVIIF) (SEQ ID NO 4)] | Kd | 18.5 µM |
